The reported measurements were obtained from PubChem BioAssay (NCATS).

Protocol details: Primary qHTS for small molecule stabilizers of the endoplasmic reticulum resident proteome: Secreted ER Calcium Modulated Protein (SERCaMP) assay (AID 1508630); also: % is scaled to controls: 0 for no effect and ±100 for the full control effect
Conditions used: SH-SY5Y GLuc-SERCaMP (Gaussia luciferase released on ER calcium loss) secretion, thapsigargin, luminescence; series mostly up to 38.4 µM
Records with an inconclusive call do not appear. Activity calls are given as the source filed them. Calls follow the shape of the dose curve; as a rule, active = well fitted inhibition curve with a large enough effect; inconclusive = small, poorly fitted or top-dose-only effect; inactive = no such curve, though single readings can be large or run the other way. Numbered stars: 1 amine (or outer) side, 2 acyl side, 3 side chain; on linkers, the order of the positions; unused ones are H or OH. Bridge positions count the residues as written; N and C are the ends. Square brackets hold non-standard residues; d marks the D form. Peptide text beside a SMILES is read from it. I, II: the chains in the order shown. Actinocin(9to1) = Cc1c2oc3c(C)ccc(C(=O)[*:1])c3nc-2c(C(=O)[*:2])c(N)c1=O; aThr = C[C@H](O)[C@H](N)C(=O)O; NMeV = CN[C@H](C(=O)O)C(C)C; Sar = CNCC(=O)O
Readout label: activity change, negative = inhibition

| Compound | activity change, negative = inhibition |
| --- | --- |
| CCCCC(C)(O)C/C=C/[C@H]1[C@H](O)CC(=O)[C@@H]1CCCCCCC(=O)O (stereo partly specified) | -15.4% [at 3.88 µM] (inactive) |
| COc1ccc2[nH]cc(CCO)c2c1 | inactive |
| CC(=O)N[C@@H](CSC/C=C(\C)CCC=C(C)C)C(=O)O | inactive |
| O=C1CC[C@H](C(=O)O)N1 | inactive |
| C[C@@H](N)CCCP(=O)(O)O | inactive |
| CCCCCC(=O)/C=C/C=C\CCCCCCCC(=O)O | -7.64% [at 0.478 µM] (inactive) |
| CCCCc1nn(-c2ccccc2C(F)(F)F)c(=O)n1Cc1ccc(-c2ccccc2S(=O)(=O)NC(=O)c2sccc2C)cc1 | inactive |
| Cc1c2oc3c(C)ccc(C(=O)N[C@@H]4C(=O)N[C@@H](C(C)C)C(=O)N5CCC[C@@H]5C(=O)N(C)CC(=O)N(C)[C@@H](C(C)C)C(=O)O[C@H]4C)c3nc-2c(C(=O)N[C@@H]2C(=O)N[C@@H](C(C)C)C(=O)N3CCC[C@@H]3C(=O)N(C)CC(=O)N(C)[C@@H](C(C)C)C(=O)O[C@H]2C)c(N)c1=O (I: [aThr]V[dP][Sar][NMeV] / II: [aThr]V[dP][Sar][NMeV]; ester I:1-I:C, II:1-II:C; linker I:N-II:N via Actinocin(9to1)) | inactive |
| O=C(NC(NC(=S)Nc1ccc(F)c([N+](=O)[O-])c1)C(Cl)(Cl)Cl)C(c1ccccc1)c1ccccc1 (stereo unspecified) | inactive |
| CC1(COc2ccc(C[C@H]3SC(=O)NC3=O)cc2)CCCCC1 | inactive |

Next item in the queue.
Query string: I would be grateful if you could share the reported activity change, negative = inhibition for CC(=O)O[C@H](CC(=O)O)C[N+](C)(C)C .
Result string: inactive

---

Protocol details: qHTS for Inhibitors of Plasmodium falciparum (HB3) proliferation (AID 504318); also: nearly all actives have a fitted effect of over 60% in size
Conditions used: P. falciparum HB3 in erythrocytes, SYBR Green DNA, 72 h; series mostly up to 7.21 µM
Results filed as inconclusive are left out. The source made the active and inactive calls. The call rests on the fitted dose curve; in most records, active means well fitted inhibition curve with a large enough effect; inconclusive means small, poorly fitted or top-dose-only effect; inactive means flat fitted curve, though single readings scatter.
Write down one outcome, taken from active, inactive

Query string: Just curious, what result did C=CCNC(=O)N1CCc2nc(CCCC)c3c(c2C1)CO[C@@H](C)C3 get here?
Result string: inactive

Query string: Just curious, what result did COC(=O)C12CC3(CCC4C5C(C(OCc6ccccc6)C41)C52)OCCO3 (centres undefined) get here?
Result string: inactive

Query string: Just curious, what result did C[C@H]1[C@H](N=[N+]=[N-])[C@H](O)CCO[C@@H]1c1ccccc1 get here?
Result string: inactive

Query string: Just curious, what result did O=C(c1ccccc1)[C@@H]1O[C@@H]1c1ccccc1 get here?
Result string: inactive

Query string: Just curious, what result did COC(=O)C1=C(C(=O)OC)[C@@H]2N(CC=C(C)C)c3ccccc3[C@@]23CCC(=O)N(Cc2cccc(C(F)(F)F)c2)C3=N1 get here?
Result string: active

Query string: Just curious, what result did COC(=O)[C@H]1[C@@H](c2ccccc2)NC(=O)N(Cc2ccccc2)[C@@H]1C get here?
Result string: inactive

Query string: Just curious, what result did COc1ccc(N2C(=O)N3[C@H](c4ccccc4)[C@@H](C)C[C@H]4c5ccccc5C[C@]43C2=O)cc1 get here?
Result string: inactive

Query string: Just curious, what result did COC(=O)N1C2CC3(C)C=C(C)OC1(C)C3c1ccccc12 (centres undefined) get here?
Result string: inactive

Query string: Just curious, what result did COC(=O)c1ccc(CN2C(=O)[C@@]3(CC(C)=CC[C@@H](COc4ccccc4)O3)c3c(Br)cccc32)cc1 get here?
Result string: active
